Assign Papp A→B at 10 µM to each entry below.
assay comment: Caco-2 permeability assay
Type: in vitro ADME
cond: human
Please state the figure in ×10⁻⁶ cm/s; there is no need to write the unit.

Sample C[C@H]1O[C@@H](O[C@H]2[C@@H](O)C[C@H](O[C@H]3[C@@H](O)C[C@H](O[C@H]4CC[C@@]5(C)[C@H](CC[C@@H]6[C@@H]5C[C@@H](O)[C@]5(C)[C@@H](C7=CC(=O)OC7)CC[C@]65O)C4)O[C@@H]3C)O[C@@H]2C)C[C@H](O)[C@@H]1O ; Papp A→B at 10 µM observed: 1.59

Reported Papp A→B at 10 µM ( COCCc1ccc(OCC(O)CNC(C)C)cc1 (centres unmarked) ) = 19.8
